test system: Medulla; experiment: Drug uptake in anesthetized cynomolgus monkey brain medulla after 3.5 mins postinjection; assay type: ADME, organism-based, Macaca fascicularis; settings: in vivo
Readout type: Drug uptake
# output: bare number, no unit

Known Drug uptake results, listed for orientation:
- Compound: "O=C(OCC[18F])C1C2CCC(CC1c1cccc(/C=C\\Br)c1)N2 (stereo not given)"
  System under test: "Medulla"
  Drug uptake: 1.26
- Compound: "O=C(OCC[18F])C1C2CCC(CC1c1cccc(/C=C\\I)c1)N2 (stereo not given)"
  System under test: "Medulla"
  Drug uptake: 1.08
- Compound: "O=C(OCCC[18F])C1C2CCC(CC1c1cccc(/C=C\\I)c1)N2 (stereo not given)"
  System under test: "Medulla"
  Drug uptake: 2.2
- Compound: "O=C(OCCC[18F])C1C2CCC(CC1c1cccc(/C=C\\Br)c1)N2 (stereo not given)"
  System under test: "Medulla"
  Drug uptake: 2.91

Lab note: next compound to report on.
IN: Field request: Drug uptake | item: O=C(OCC[18F])C1C2CCC(CC1c1ccc(/C=C\I)cc1)N2 (stereo not given)
OUT: 0.94

----------
// reported Ratio for each item listed
experiment: Ratio of drug uptake in putamen to cerebellum in anesthetized cynomolgus monkey after 75 mins postinjection; format: ADME, organism-based, Macaca fascicularis; details: in vivo, 1.25 h
Form field (numeric): enter value without unit.

Below: 4 molecules and their reported Ratio.
- Molecule: "O=C(OCCC[18F])C1C2CCC(CC1c1cccc(/C=C\\Br)c1)N2 (stereo not given)"
  Ratio: 1.4
- Molecule: "O=C(OCC[18F])C1C2CCC(CC1c1cccc(/C=C\\Br)c1)N2 (stereo not given)"
  Ratio: 1.5
- Molecule: "O=C(OCC[18F])C1C2CCC(CC1c1ccc(/C=C\\I)cc1)N2 (stereo not given)"
  Ratio: 1.8
- Molecule: "O=C(OCCC[18F])C1C2CCC(CC1c1cccc(/C=C\\I)c1)N2 (stereo not given)"
  Ratio: 1.3

Attention now turns to another entry.
IN: Name the recorded Ratio for O=C(OCC[18F])C1C2CCC(CC1c1cccc(/C=C\I)c1)N2 (stereo not given) .
OUT: 1.4

----------
test system: Medulla; test: Drug uptake in anesthetized cynomolgus monkey brain medulla after 215 mins postinjection; type: ADME, organism-based, Macaca fascicularis; conditions: in vivo
Readout type: Drug uptake
Note: the reply should be a number with no unit written.

Illustrative cases are given below, each with its answer.
- Molecule: "O=C(OCC[18F])C1C2CCC(CC1c1cccc(/C=C\\I)c1)N2 (stereo not given)"
  Experimental result: 2.43
- Molecule: "O=C(OCCC[18F])C1C2CCC(CC1c1cccc(/C=C\\Br)c1)N2 (stereo not given)"
  Experimental result: 3.67
- Molecule: "O=C(OCC[18F])C1C2CCC(CC1c1cccc(/C=C\\Br)c1)N2 (stereo not given)"
  Experimental result: 3.04
- Molecule: "O=C(OCC[18F])C1C2CCC(CC1c1ccc(/C=C\\I)cc1)N2 (stereo not given)"
  Experimental result: 3.32

Moving on to the next molecule.
IN: Looking for the measured Drug uptake of O=C(OCCC[18F])C1C2CCC(CC1c1cccc(/C=C\I)c1)N2 (stereo not given) , can you help?
OUT: 3.66

----------
assay: Ratio of drug uptake in frontal lobe to cerebellum in anesthetized cynomolgus monkey after 35 mins postinjection; assay type: ADME, organism-based, Macaca fascicularis; conditions: in vivo
Overview of reported Ratio across a group of compounds:
Enter a number only.

- Compound: "O=C(OCCC[18F])C1C2CCC(CC1c1cccc(/C=C\\I)c1)N2 (stereo not given)"
  Ratio: 0.6

IN: State the recorded Ratio for this entry: O=C(OCC[18F])C1C2CCC(CC1c1cccc(/C=C\Br)c1)N2 (stereo not given)
OUT: 0.7

IN: Reported Ratio for O=C(OCCC[18F])C1C2CCC(CC1c1cccc(/C=C\Br)c1)N2 (stereo not given) : what is it?
OUT: 0.7

IN: What Ratio value was documented for this compound, O=C(OCC[18F])C1C2CCC(CC1c1ccc(/C=C\I)cc1)N2 (stereo not given) ?
OUT: 0.7

IN: What Ratio value was documented for this compound, O=C(OCC[18F])C1C2CCC(CC1c1cccc(/C=C\I)c1)N2 (stereo not given) ?
OUT: 0.7
